Values from ChEMBL document CHEMBL3286351

Recorded MIC for the following compounds
tested on: Pseudomonas aeruginosa; experiment: Antibacterial activity against Pseudomonas aeruginosa MTCC 2295 assessed as growth inhibition after 18 hrs by CLSI microdilution broth assay; type: functional; conditions: MTCC 2295, 18 h
Where a SMILES comes first, the peptide text is derived from it. [ ]: non-standard residue; d: D form. 3Abz = Nc1cccc(C(=O)O)c1; Orn = NCCC[CH](N)C(=O)O
Numeric only. Scale: µg/mL

N=C(N)NCCCC(N)C(=O)NC(CCCNC(=N)N)C(=O)NC(Cc1c[nH]c2ccccc12)C(=O)NC(Cc1c[nH]c2ccccc12)C(=O)NC(CCCNC(=N)N)C(N)=O (centres undefined) (H-RRWWR-NH2; configuration not given here)	100
NCCCC(N)C(=O)NC(Cc1c[nH]c2ccccc12)C(=O)NC(Cc1c[nH]c2ccccc12)C(=O)Nc1cccc(C(=O)NC(CCCN)C(=O)NC(CCCN)C(N)=O)c1 (centres undefined) (H-[Orn]WW[3Abz][Orn][Orn]-NH2; configuration not given here)	100
N=C(N)NCCCC(N)C(=O)NC(CCCNC(=N)N)C(=O)NC(Cc1c[nH]c2ccccc12)C(=O)Nc1cccc(C(=O)NC(Cc2c[nH]c3ccccc23)C(=O)NC(CCCNC(=N)N)C(N)=O)c1 (centres undefined) (H-RRW[3Abz]WR-NH2; configuration not given here)	25

Looking up NCCCC(N)C(=O)NC(CCCN)C(=O)NC(Cc1c[nH]c2ccccc12)C(=O)Nc1cccc(C(=O)NC(Cc2c[nH]c3ccccc23)C(=O)NC(CCCN)C(N)=O)c1 (centres undefined) (H-[Orn][Orn]W[3Abz]W[Orn]-NH2; configuration not given here) , I see its MIC listed as 50

----------
Reported remaining at 96 h by item:
tested on: alpha chymotrypsin; assay: Proteolytic stability assessed as alpha chymotrypsin (unknown origin)-mediated compound degradation by measuring compound remaining after 4 days by RP-HPLC analysis; type: ADME; settings: human, read-out: Stability
Where a SMILES comes first, the peptide text is derived from it. [ ]: non-standard residue; d: D form. 3Abz = Nc1cccc(C(=O)O)c1; Orn = NCCC[CH](N)C(=O)O
# unit: % | format: bare number

NCCCC(NC(=O)C(Cc1c[nH]c2ccccc12)NC(=O)C(Cc1c[nH]c2ccccc12)NC(=O)C(CCCN)NC(=O)C(N)Cc1c[nH]c2ccccc12)C(N)=O (centres undefined) (H-W[Orn]WW[Orn]-NH2; configuration not given here)	44
NCCCC(NC(=O)C(Cc1c[nH]c2ccccc12)NC(=O)c1cccc(NC(=O)C(Cc2c[nH]c3ccccc23)NC(=O)C(CCCN)NC(=O)C(N)Cc2c[nH]c3ccccc23)c1)C(N)=O (centres undefined) (H-W[Orn]W[3Abz]W[Orn]-NH2; configuration not given here)	70
N=C(N)NCCCC(NC(=O)C(Cc1c[nH]c2ccccc12)NC(=O)C(Cc1c[nH]c2ccccc12)NC(=O)C(CCCNC(=N)N)NC(=O)C(N)Cc1c[nH]c2ccccc12)C(N)=O (centres undefined) (H-WRWWR-NH2; configuration not given here)	44

Now for the molecule whose remaining at 96 h we want.
remaining at 96 h for N=C(N)NCCCC(NC(=O)C(Cc1c[nH]c2ccccc12)NC(=O)c1cccc(NC(=O)C(Cc2c[nH]c3ccccc23)NC(=O)C(CCCNC(=N)N)NC(=O)C(N)Cc2c[nH]c3ccccc23)c1)C(N)=O (centres undefined) (H-WRW[3Abz]WR-NH2; configuration not given here) is 70

----------
assay: Induction of hemolysis in human RBC assessed as hemoglobin release after 1 hr by microtiter plate reader analysis; type: cell-based, Erythrocyte; conditions: red blood cells
Where a SMILES comes first, the peptide text is derived from it. [ ]: non-standard residue; d: D form. 3Abz = Nc1cccc(C(=O)O)c1; Orn = NCCC[CH](N)C(=O)O
HC50 at 1 h: recorded values
Return type: number; implicit unit µg/mL.

Worked examples, 5 compounds total:
N=C(N)NCCCC(N)C(=O)NC(Cc1c[nH]c2ccccc12)C(=O)NC(CCCNC(=N)N)C(=O)Nc1cccc(C(=O)NC(Cc2c[nH]c3ccccc23)C(=O)NC(CCCNC(=N)N)C(N)=O)c1 (centres undefined) (H-RWR[3Abz]WR-NH2; configuration not given here)	400
N=C(N)NCCCC(NC(=O)C(Cc1c[nH]c2ccccc12)NC(=O)c1cccc(NC(=O)C(Cc2c[nH]c3ccccc23)NC(=O)C(CCCNC(=N)N)NC(=O)C(N)Cc2c[nH]c3ccccc23)c1)C(N)=O (centres undefined) (H-WRW[3Abz]WR-NH2; configuration not given here)	310
NCCCC(NC(=O)C(Cc1c[nH]c2ccccc12)NC(=O)C(Cc1c[nH]c2ccccc12)NC(=O)C(CCCN)NC(=O)C(N)Cc1c[nH]c2ccccc12)C(N)=O (centres undefined) (H-W[Orn]WW[Orn]-NH2; configuration not given here)	225
N=C(N)NCCCC(NC(=O)C(CCCNC(=N)N)NC(=O)c1cccc(NC(=O)C(Cc2c[nH]c3ccccc23)NC(=O)C(N)Cc2c[nH]c3ccccc23)c1)C(N)=O (centres undefined) (H-WW[3Abz]RR-NH2; configuration not given here)	400
NCCCC(N)C(=O)NC(CCCN)C(=O)NC(Cc1c[nH]c2ccccc12)C(=O)NC(Cc1c[nH]c2ccccc12)C(=O)NC(CCCN)C(N)=O (centres undefined) (H-[Orn][Orn]WW[Orn]-NH2; configuration not given here)	310

HC50 at 1 h measured on NCCCC(NC(=O)C(Cc1c[nH]c2ccccc12)NC(=O)c1cccc(NC(=O)C(Cc2c[nH]c3ccccc23)NC(=O)C(CCCN)NC(=O)C(N)Cc2c[nH]c3ccccc23)c1)C(N)=O (centres undefined) (H-W[Orn]W[3Abz]W[Orn]-NH2; configuration not given here) = 390

----------
Parameter MIC: see the listing below.
test system: Pseudomonas aeruginosa; experiment: Antibacterial activity against Pseudomonas aeruginosa MTCC 2295 assessed as growth inhibition after 18 hrs by CLSI microdilution broth assay; assay type: functional; details: MTCC 2295, 18 h
Where a SMILES comes first, the peptide text is derived from it. [ ]: non-standard residue; d: D form. 3Abz = Nc1cccc(C(=O)O)c1; Orn = NCCC[CH](N)C(=O)O
Write the number in µg/mL without appending the unit.

The examples below pair each entry with its known result.
NCCCC(NC(=O)C(Cc1c[nH]c2ccccc12)NC(=O)c1cccc(NC(=O)C(Cc2c[nH]c3ccccc23)NC(=O)C(CCCN)NC(=O)C(N)Cc2c[nH]c3ccccc23)c1)C(N)=O (centres undefined) (H-W[Orn]W[3Abz]W[Orn]-NH2; configuration not given here)	15.5
N=C(N)NCCCC(N)C(=O)NC(Cc1c[nH]c2ccccc12)C(=O)Nc1cccc(C(=O)NC(CCCNC(=N)N)C(N)=O)c1 (centres undefined) (H-RW[3Abz]R-NH2; configuration not given here)	75

Note: attention shifts to another entry.
Item N=C(N)NCCCC(NC(=O)C(Cc1c[nH]c2ccccc12)NC(=O)c1cccc(NC(=O)C(Cc2c[nH]c3ccccc23)NC(=O)C(CCCNC(=N)N)NC(=O)C(N)Cc2c[nH]c3ccccc23)c1)C(N)=O (centres undefined) (H-WRW[3Abz]WR-NH2; configuration not given here) was tested on Pseudomonas aeruginosa; the reported MIC is 12.5

----------
tested on: Staphylococcus aureus; assay: Antibacterial activity against Staphylococcus aureus MTCC 3160 assessed as growth inhibition after 18 hrs by CLSI microdilution broth assay; assay type: functional; conditions: MTCC 3160, 18 h
Where a SMILES comes first, the peptide text is derived from it. [ ]: non-standard residue; d: D form. 3Abz = Nc1cccc(C(=O)O)c1; Orn = NCCC[CH](N)C(=O)O
experimentalEndpoint: MIC (µg/mL)
The answer is to be given in µg/mL; state only the numeric part.

Consider the following illustrative entries.
N=C(N)NCCCC(NC(=O)C(Cc1c[nH]c2ccccc12)NC(=O)c1cccc(NC(=O)C(CCCNC(=N)N)NC(=O)C(CCCNC(=N)N)NC(=O)C(N)Cc2c[nH]c3ccccc23)c1)C(N)=O (centres undefined) (H-WRR[3Abz]WR-NH2; configuration not given here)	15
N=C(N)NCCCC(NC(=O)C(CCCNC(=N)N)NC(=O)c1cccc(NC(=O)C(Cc2c[nH]c3ccccc23)NC(=O)C(N)Cc2c[nH]c3ccccc23)c1)C(N)=O (centres undefined) (H-WW[3Abz]RR-NH2; configuration not given here)	50

Per the records, this compound ( N=C(N)NCCCC(NC(=O)c1cccc(NC(=O)C(Cc2c[nH]c3ccccc23)NC(=O)C(N)Cc2c[nH]c3ccccc23)c1)C(N)=O (centres undefined) (H-WW[3Abz]R-NH2; configuration not given here) ) has MIC equal to 120

response.value for N=C(N)NCCCC(NC(=O)C(CCCNC(=N)N)NC(=O)c1cccc(NC(=O)C(CCCNC(=N)N)NC(=O)C(N)Cc2c[nH]c3ccccc23)c1)C(N)=O (centres undefined) (H-WR[3Abz]RR-NH2; configuration not given here) (field: MIC) = 100

Measured MIC of NCCCC(NC(=O)C(Cc1c[nH]c2ccccc12)NC(=O)c1cccc(NC(=O)C(Cc2c[nH]c3ccccc23)NC(=O)C(CCCN)NC(=O)C(N)Cc2c[nH]c3ccccc23)c1)C(N)=O (centres undefined) (H-W[Orn]W[3Abz]W[Orn]-NH2; configuration not given here) : 6.25
